- System: OVCAR-4 ovarian
- Procedure Details: NCI tumour cell line growth inhibition, 48 h
Can you tell me TGI for the items I'm about to list?

Exercise: What measured TGI goes with O=C1CCC2(CC1CCS(=O)c1ccccc1)OCCO2 (stereo unspecified) ?
Key: > 100 µM

Exercise: Try O=C(O)c1ccccc1/C=C1/Cc2ccc3c(c2C1=O)CCC3 next.
Key: > 100 µM

Exercise: Now try O=C1/C(=C/c2ccccc2)CCc2ccc([N+](=O)[O-])cc21 .
Key: > 100 µM

Exercise: Item: CN(/N=C/c1ccc(Cl)c(Cl)c1)C1=NCCCCN1
Key: > 100 µM

Exercise: Follow-up item: O=C1c2ccccc2C(=O)c2c1oc1c2c(=O)[nH]c2ccc(Cl)cc21
Key: 0.443 µM

Exercise: Item: COn1oc(=O)c2ccccc21
Key: > 100 µM

====

Please respond with reported TGI for every item in the list.
- Tested on: HS 578T breast
- Procedure Details: NCI tumour cell line growth inhibition, 48 h
Number in µM, nothing else.

Exercise: Give recorded TGI with HS 578T breast for the following compound: CN(CCNC(=O)c1nn(-c2ccc(Cl)cc2Cl)c2c1Cc1ccccc1-2)CCNC(=O)c1nn(-c2ccc(Cl)cc2Cl)c2c1Cc1ccccc1-2
Key: 32.5

Exercise: Another compound: C/C(CC(C)(C)N1CC1)=N\NC(=O)Nc1cccc2ccccc12
Key: 24.7

Exercise: # iterate: O=C(Nc1n[nH]c2nc(-c3ccc(O)cc3)c(Br)cc12)C1CC1
Key: 21.6

Exercise: Follow-up item: COC(=O)/C=C\C(C#N)(C#N)N=Cc1cccs1
Key: 78.3

====

- Tested on: PC-3 prostate
- Procedure Details: NCI tumour cell line growth inhibition, 48 h
Given measured TGI, output met if it is greater than or equal to 30 µM and not met if not.

Exercise: Record C/C=C\C(CC(=O)NCCC1CN(C(=O)OCc2ccccc2)c2ccccc21)CC(=O)OC (stereo unspecified) ; criterion: TGI no lower than 30 µM. Met?
Key: met

Exercise: Same question for Cc1oc2nc(N(C)C)nc(NN)c2c1C please.
Key: met

Exercise: Then OCC(O)COCn1cc(Cn2ncc3c(NCc4ccccc4)ncnc32)nn1 (stereo unspecified) ?
Key: met

Exercise: # repeat for O=C(Nc1ccccc1Cl)c1ccc(NC2=C(Cl)C(=O)N(C3CCCCC3)C2=O)cc1
Key: met

Exercise: What do you get for O=C1/C(=C/c2ccccc2)CCc2ccc([N+](=O)[O-])cc21 ?
Key: met

Exercise: Then this molecule: C#Cc1cccc(NC(=O)c2cccc(NC(=O)CCl)c2)c1
Key: met

Exercise: Also CC[C@@H]1CSC(/C=C/C2OC3OC(C)(C)OC3C3OC(C)(C)OC23)=N1 (stereo partly specified) ?
Key: not met

Exercise: Could you do the same for S=C1SCN(Cc2ccccc2)CN1Cc1ccccc1 , please?
Key: not met

Exercise: What do we get for CC(=O)OC12CC[N+]3(C)CCCCC3C1=Nc1ccccc12 (stereo unspecified) ?
Key: met

Exercise: Another molecule to look at: c1ccc(SCCc2ccncc2)cc1
Key: met

Exercise: Input N#CC1(C#N)[C@@H]2CCC=C(Sc3ccccc3)[C@@H]21
Key: not met

====

- Tested on: COLO 205 colon
- Procedure Details: NCI tumour cell line growth inhibition, 48 h
Output Fulfilled for TGI not less than 70 µM; output Not fulfilled otherwise.

Exercise: Could you verify whether the entry CSc1ccc2c(cc1=O)C(NC(=O)c1ccccc1)CCc1cc(O)c(O)c(O)c1-2 (centres undefined) shows TGI of no less than 70 µM?
Key: Fulfilled

Exercise: Try the compound COc1ccc(NC(=O)C(C#N)=C(SC)SC)cc1
Key: Fulfilled

Exercise: Entry O=c1[nH]nc(CNc2ccc(Cl)cc2Cl)c2ccccc12 please
Key: Fulfilled

Exercise: Please do the same for Cc1ccc2[nH]c(C(=O)NN3C(=O)C(C)SC34CCC(C)CC4)c(-c3ccccc3)c2c1 (centres undefined) as well.
Key: Not fulfilled

Exercise: Try this compound next: CCOP(=O)(Nc1ccc(-c2ccc(N)cc2)cc1)OCC
Key: Fulfilled

Exercise: Now the compound CC(C)c1cccc(C(C)C)c1NC(=O)C(=O)C1CCC2=C(Sc3ccccc3N2)C1=O (centres undefined)
Key: Fulfilled

Exercise: # repeat for O=C1/C(=C/C=C/c2ccccc2)N=C(c2ccccc2)N1c1ccc(S(=O)(=O)Nc2nccs2)cc1
Key: Not fulfilled

Exercise: Subsequent entry: O=c1oc2cc(O)ccc2c2oc3cc(O)ccc3c12
Key: Fulfilled

Exercise: Now consider O=C1/C(=C/c2ccccc2)CCc2ccc([N+](=O)[O-])cc21 .
Key: Fulfilled

Exercise: Repeat for the following compound: O=C1CCCCCCCCCCC1CN1CCOCC1 (centres undefined)
Key: Fulfilled

Exercise: And for O=c1cc(-c2ccccc2)oc2c1ccc1ccccc12 ?
Key: Fulfilled

Exercise: # repeat for CC(C)(CCl)NC(=O)c1cccc(C(=O)NC(C)(C)CCl)n1
Key: Fulfilled

Exercise: Next compound up: C/C=C\C(CC(=O)NCCC1CN(C(=O)OCc2ccccc2)c2ccccc21)CC(=O)OC (centres undefined)
Key: Fulfilled

Exercise: Follow-up item: CCN1C(=O)N(CC)C2C1NN=c1s/c(=C\c3ccc(C(F)(F)F)cc3)c(=O)n12 (centres undefined)
Key: Not fulfilled

Exercise: And then O=C(Nc1ccccc1Cl)c1ccc(NC2=C(Cl)C(=O)N(C3CCCCC3)C2=O)cc1 , what is it?
Key: Not fulfilled

Exercise: Check Cc1nc(C)c(N2CCN(S(N)(=O)=O)CC2)c(=O)[nH]1 too.
Key: Fulfilled

Exercise: Could you do the same for COC(=O)c1sc2c(=O)c(C(=O)OC)c(C(=O)OC)sc2c(=O)c1C(=O)OC , please?
Key: Fulfilled

Exercise: Another compound to look at: COc1cc(NS(C)(=O)=O)ccc1Cc1c2ccccc2nc2ccccc12
Key: Not fulfilled

Exercise: # iterate: COc1cccc(C=O)c1[O-].COc1cccc(C=O)c1[O-].[Zn+2]
Key: Fulfilled

====

Task for the reader: assign each of the following compounds its reported TGI.
- Test system: CCRF-CEM leukemia
- Procedure Details: NCI tumour cell line growth inhibition, 48 h

Exercise: Look up TGI: O=S1(=O)c2cc(S(=O)(=O)n3ccnc3)ccc2NC2=NCCCN21
Key: 73.3 µM

Exercise: Request: Nc1ccn(CCOC(c2ccccc2)P(=O)(O)O)c(=O)n1 (stereo not given)
Key: > 100 µM

Exercise: And the next one, CC(C)CCCCCCCCCCCCC(=O)NCC(=O)NC1C(C)OC(Nc2ncnc3nc[nH]c23)C(O)C1O (stereo not given) ?
Key: 0.223 µM

Exercise: Continue with C=CCc1cccc2cc(C(=O)Nc3ccc(C)cc3)c(=N)oc12
Key: > 100 µM

Exercise: What do you have for Cc1ccc(/C=N/NS(=O)(=O)c2ccccc2)cc1C ?
Key: > 100 µM

Exercise: Here is the next compound: O=C1/C(=C/c2ccccc2)CCc2ccc([N+](=O)[O-])cc21
Key: > 100 µM

Exercise: And the next one, COc1cc(NS(C)(=O)=O)ccc1Cc1c2ccccc2nc2ccccc12 ?
Key: 0.751 µM

Exercise: Next compound: CC(=O)OC12CC[N+]3(C)CCCCC3C1=Nc1ccccc12 (stereo not given)
Key: > 100 µM

Exercise: Next compound: COc1ccc(-c2cc(=O)c3cc(C)c(C)c(C(=O)O)c3o2)cc1
Key: > 100 µM

Exercise: Now consider Nc1nc(SCCNC(=O)CCc2ccc(O)c(I)c2)nc2c1ncn2C1OC(CO)C(O)C1O (stereo not given) and answer again.
Key: > 100 µM

====

Answer each item with its documented TGI.
- Tested on: SNB-75 CNS
- Procedure Details: NCI tumour cell line growth inhibition, 48 h

Exercise: Looking for the measured TGI of O=C(c1ccccc1)N(CCCCNC(=O)C(F)(F)F)CCCNC(=O)C(F)(F)F , can you help?
Key: > 100 µM

Exercise: // same read-out, input: CC1SC2=NC3=C(c4ccccc4C3=O)C(c3ccccc3Cl)N2C1=O (stereo not drawn)
Key: > 100 µM

Exercise: Item: COc1ccc(-c2oc3c(OC)c(OC)c(OC)c(O)c3c(=O)c2OC)cc1O
Key: < 0.01 µM

Exercise: Input C=CCn1c(=O)c(Br)nn(CCOCP(=O)(OCC)OCC)c1=O
Key: > 100 µM

Exercise: Can you handle O=C(C=Nc1ccccc1S)c1ccco1 next?
Key: 31.9 µM

Exercise: Can you check N#Cc1ccc(OCCSCCCCCCCCCCSCCOc2ccc(C#N)cc2)cc1 next?
Key: > 100 µM

Exercise: Consider next the compound O=c1cc(-c2ccccc2)oc2c1ccc1ccccc12 in the same way.
Key: 45.9 µM

Exercise: # iterate: c1ccc(SCCc2ccncc2)cc1
Key: > 100 µM

Exercise: Note, next up: CCOC(=O)[C@@]1(C(C)=O)CC(C)=C(C)C[S@]1=O
Key: > 100 µM

Exercise: // same read-out, input: FC(F)(F)c1nc(SCc2ccc(Cl)cc2)n[nH]1
Key: > 100 µM

Exercise: Now the compound COc1cccc(C=O)c1[O-].COc1cccc(C=O)c1[O-].[Zn+2]
Key: > 100 µM

Exercise: // same read-out, input: CC(=O)OCC1=CC2OC(=O)C3=COC(OC4OC(CO)C(O)C(O)C4O)C1C32 (stereo not drawn)
Key: > 100 µM

Exercise: Moving on to the next compound: COc1ccc(C(=O)c2nc3ccccc3nc2N2CCN(c3ccccc3)CC2)cc1OC
Key: > 100 µM

The reported numbers originate from PubChem BioAssay (NCI).
